test_target: SARS-CoV-2 M^pro (main protease; 3CLpro) (Severe acute respiratory syndrome coronavirus 2, UniProt P0DTC1)
method: continuous FRET cleavage assay
Each item that follows carries a reported pIC50.
pIC50 here is simply -log10 of the concentration when that concentration is written in mol/L.

Reference set, count: 2
[
  {
    "molecule": "Cc1ccc(NC(=O)C2CC(=O)Nc3cc(F)ccc32)c(OCC(F)(F)F)c1 (stereo not drawn)",
    "quantity_name": "pIC50",
    "reported_value": 4.06
  },
  {
    "molecule": "CCOc1cc(C)ccc1NC(=O)C1CC(=O)Nc2ccccc21 (stereo not drawn)",
    "quantity_name": "pIC50",
    "reported_value": 4.49
  }
]

Query: For the molecule shown here, `O=C(Nc1ccccc1-c1nc2ccccc2[nH]1)c1cc(C2CC2)[nH]n1` , give the reported pIC50.
Result: 4.15
